assay protocol: qHTS assay to identify small molecule phospholipidosis (PLD) inducers (AID 1259344); note: % is set by controls: 0 for no effect and ±100 for the full control effect
condition summary: HepG2 phospholipidosis, LipidTOX Red imaging, 24 h; series mostly up to 38.3 µM
Records with an inconclusive call do not appear. Calls of active or inactive are those of the source. Calls come from the whole dose curve; as a rule, active = well fitted activation curve with a large enough effect; inconclusive = small, poorly fitted or top-dose-only effect; inactive = flat fitted curve, though single readings scatter.

{"compound": "CCOC(=O)c1ccc(OC(=O)CCCCCN=C(N)N)cc1", "outcome": "inactive"}
{"compound": "O=C1c2cccc3c2[C@H](CCC3)CN1[C@@H]1CN2CCC1CC2", "outcome": "inactive"}
{"compound": "NS(=O)(=O)c1ccc(NC(=O)CCC(=O)O)cc1", "outcome": "inactive"}
{"compound": "Cc1cc(NC(=O)C2=C(O)c3ccccc3S(=O)(=O)N2C)no1", "outcome": "inactive"}
{"compound": "CCN(CC)CC(=O)Nc1c(C)cccc1C", "outcome": "inactive"}
{"compound": "COCCOC(=O)C1=C(C)NC(C)=C(C(=O)OC(C)C)C1c1cccc([N+](=O)[O-])c1 (configuration not stated)", "outcome": "inactive"}
{"compound": "CC(=O)CCCCn1c(=O)c2c(ncn2C)n(C)c1=O", "outcome": "inactive"}
{"compound": "Cc1cc2cc3c(C)cc(=O)oc3c(C)c2o1", "outcome": "inactive"}
{"compound": "COC(=O)c1ccccc1C(=O)c1ccc(OCCN2CCCCC2)cc1", "outcome": "inactive"}
{"compound": "CC(=O)NCc1c(I)c(NC(C)=O)c(I)c(C(=O)O)c1I", "outcome": "inactive"}
{"compound": "Cc1cccc(C)c1NC(=O)c1ccccc1C(=O)O", "outcome": "inactive"}
{"compound": "CC(=O)NCCCCCC(=O)O", "outcome": "inactive"}

---

assay protocol: qHTS assay to identify small molecule HDAC inhibitors - cell viability counter screen (AID 1259365); note: % is set by controls: 0 for no effect and ±100 for the full control effect; nearly all actives have a fitted effect of over 50% in size
condition summary: HCT-116 viability, CellTiter-Glo ATP luminescence, 2 h; series mostly up to 92.4 µM
Active and inactive are the calls of the source. Calls come from the whole dose curve; as a rule, active = well fitted cell-killing curve with a large enough effect in the repeat runs; inconclusive = weak or mixed curves, or effect the other way; inactive = flat fitted curve, though single readings scatter.
endpoint name: activity change, negative = cytotoxicity

{"molecule": "NS(=O)(=O)c1ccc(NC(=O)CCC(=O)O)cc1", "endpoint name": "activity change, negative = cytotoxicity", "readout value": "inactive"}
{"molecule": "CCC(C)(CCC(C)C)C(=O)O (configuration not stated)", "endpoint name": "activity change, negative = cytotoxicity", "readout value": "inactive"}
{"molecule": "C=C(C)C(=O)OCCOP(=O)(O)OCCOC(=O)C(=C)C", "endpoint name": "activity change, negative = cytotoxicity", "readout value": "inactive"}
{"molecule": "Nc1nnc(-c2cccc(Cl)c2Cl)c(N)n1", "endpoint name": "activity change, negative = cytotoxicity", "readout value": "inactive"}
{"molecule": "Oc1ccccc1-c1nnco1", "endpoint name": "activity change, negative = cytotoxicity", "readout value": "inactive"}
{"molecule": "CCN(C)C(=O)Oc1cccc([C@H](C)N(C)C)c1", "endpoint name": "activity change, negative = cytotoxicity", "readout value": "inactive"}
{"molecule": "Nc1cccc(O)c1", "endpoint name": "activity change, negative = cytotoxicity", "readout value": "inactive"}
{"molecule": "C=Cc1ccccn1", "endpoint name": "activity change, negative = cytotoxicity", "readout value": "inactive"}
{"molecule": "COc1cc(N)ccc1C", "endpoint name": "activity change, negative = cytotoxicity", "readout value": "inactive"}
{"molecule": "CC(C)(C)NC(N)=O", "endpoint name": "activity change, negative = cytotoxicity", "readout value": "inactive"}
{"molecule": "CC(=C(CCOC(=O)C(C)C)SSC(CCOC(=O)C(C)C)=C(C)N(C=O)Cc1cnc(C)nc1N)N(C=O)Cc1cnc(C)nc1N", "endpoint name": "activity change, negative = cytotoxicity", "readout value": "inactive"}
{"molecule": "CO[C@@H]1[C@@H](OC(N)=O)[C@@H](O)[C@H](Oc2ccc3c(O)c(NC(=O)c4ccc(O)c(CC=C(C)C)c4)c(=O)oc3c2C)OC1(C)C", "endpoint name": "activity change, negative = cytotoxicity", "readout value": "inactive"}

---

assay protocol: A CellTox Green Cytotoxicity Assay to monitor cytotoxicity in HEK293 cells - 32 hour (AID 1224881); note: % is set by controls: 0 for no effect and ±100 for the full control effect; nearly all actives have a fitted effect of over 40% in size
condition summary: CellTox Green fluorescence; series mostly up to 76.8 µM
Text: National Center for Advancing Translational Sciences [NCATS] NIH Chemical Genomics Center [NCGC] U.S. Environmental Protection Agency [EPA] National Institutes of Environmental Health Sciences [NIEHS] National Toxicology Program [NTP] Cell-based models are critical for drug discovery. […] Viable cells produce no appreciable increases in fluorescence. Therefore, the fluorescence signal produced by the binding interaction with dead cell DNA is proportional to cytotoxicity. […]
Records with an inconclusive call do not appear. Activity calls are given as the source filed them. Calls come from the whole dose curve; as a rule, active = well fitted activation curve with a large enough effect in the repeat runs; inconclusive = weak or mixed curves; inactive = flat fitted curve, though single readings scatter.

{"smiles representation": "COc1ccc(-c2cc(=O)c3c(O)cc(O[C@@H]4O[C@H](CO[C@@H]5O[C@@H](C)[C@H](O)[C@@H](O)[C@H]5O)[C@@H](O)[C@H](O)[C@H]4O)cc3o2)cc1O", "cytotoxicity increase": "inactive"}
{"smiles representation": "COc1ccc(S(=O)(=O)N2c3ccc(Cl)cc3[C@@](O)(c3ccccc3Cl)[C@H]2C(=O)N2CCC[C@@H]2C(N)=O)cc1OC", "cytotoxicity increase": "inactive"}
{"smiles representation": "Cc1cc(Cl)c(C)cc1Cl", "cytotoxicity increase": "inactive"}
{"smiles representation": "Cc1nc2n(c(=O)c1CCN1CCC(c3noc4cc(F)ccc34)CC1)CCC[C@H]2O", "cytotoxicity increase": "6.5% [at 15.8 µM] (inactive)"}

---

test system: Androgen receptor (Homo sapiens) (UniProt P10275)
Sequence (P10275 whole entry, looked up): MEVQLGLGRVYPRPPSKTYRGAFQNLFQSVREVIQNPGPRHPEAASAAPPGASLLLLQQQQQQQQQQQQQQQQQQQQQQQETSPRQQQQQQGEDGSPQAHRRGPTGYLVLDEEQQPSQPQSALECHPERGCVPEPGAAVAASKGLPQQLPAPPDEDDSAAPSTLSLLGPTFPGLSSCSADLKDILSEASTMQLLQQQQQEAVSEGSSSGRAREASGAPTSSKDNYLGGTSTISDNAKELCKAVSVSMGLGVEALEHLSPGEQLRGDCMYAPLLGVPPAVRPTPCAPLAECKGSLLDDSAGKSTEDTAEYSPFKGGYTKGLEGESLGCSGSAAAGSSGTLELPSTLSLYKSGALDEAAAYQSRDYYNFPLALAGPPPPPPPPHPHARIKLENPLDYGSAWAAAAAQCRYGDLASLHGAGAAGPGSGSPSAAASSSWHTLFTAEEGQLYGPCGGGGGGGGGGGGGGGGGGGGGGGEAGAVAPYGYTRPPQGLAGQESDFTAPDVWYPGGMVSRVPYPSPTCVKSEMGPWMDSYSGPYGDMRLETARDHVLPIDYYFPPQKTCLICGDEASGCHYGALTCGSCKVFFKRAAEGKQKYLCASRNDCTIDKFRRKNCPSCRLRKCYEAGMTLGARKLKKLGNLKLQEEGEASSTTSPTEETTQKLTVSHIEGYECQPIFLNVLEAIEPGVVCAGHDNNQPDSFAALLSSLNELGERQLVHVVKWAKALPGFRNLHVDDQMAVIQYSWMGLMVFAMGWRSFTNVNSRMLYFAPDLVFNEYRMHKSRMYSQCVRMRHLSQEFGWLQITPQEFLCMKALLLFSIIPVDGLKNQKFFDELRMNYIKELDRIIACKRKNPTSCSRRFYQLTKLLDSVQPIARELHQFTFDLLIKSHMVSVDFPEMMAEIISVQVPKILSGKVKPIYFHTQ
assay protocol: qHTS assay to identify small molecule antagonists of the androgen receptor (AR) signaling pathway using the MDA cell line in the presence of 0.5 nM R1881 (AID 1259243); note: nearly all actives have a fitted effect of over 50% in size
condition summary: MDA-kb2 MMTV-luciferase, R1881 0.5 nM, 16 h; series mostly up to 92.4 µM
Inconclusive results are not listed. Active and inactive are the calls of the source. The call rests on the fitted dose curve; in most records, active means well fitted inhibition curve with a large enough effect in the repeat runs; inconclusive means weak or mixed curves; inactive means no such curve, though single readings can be large or run the other way.
Outcome codes: label 1 (active), label 0 (inactive)

{"compound": "Cc1cc(C(C)(C)C)c(O)c(C)c1CC1=NCCN1", "test system": "Androgen receptor (Homo sapiens) (UniProt P10275)", "class": "label 0"}
{"compound": "O=C1c2ccccc2C(=O)N1CCl", "test system": "Androgen receptor (Homo sapiens) (UniProt P10275)", "class": "label 0"}
{"compound": "O=C(OCc1ccccc1)C(=O)OCc1ccccc1", "test system": "Androgen receptor (Homo sapiens) (UniProt P10275)", "class": "label 0"}
{"compound": "COc1ccc2c(c1)C(=O)N(CCc1ccc(S(=O)(=O)NC(=O)NC3CCCCC3)cc1)C(=O)C2(C)C", "test system": "Androgen receptor (Homo sapiens) (UniProt P10275)", "class": "label 0"}
{"compound": "CC(CO)c1ccccc1 (centres undefined)", "test system": "Androgen receptor (Homo sapiens) (UniProt P10275)", "class": "label 0"}
{"compound": "Cc1ccc2ccc(Cl)cc2n1", "test system": "Androgen receptor (Homo sapiens) (UniProt P10275)", "class": "label 0"}
{"compound": "CC(C)c1ccc2cc(C(C)C)ccc2c1", "test system": "Androgen receptor (Homo sapiens) (UniProt P10275)", "class": "label 0"}
{"compound": "Cc1cccc(OCC(O)CNC(C)(C)C)c1C (centres undefined)", "test system": "Androgen receptor (Homo sapiens) (UniProt P10275)", "class": "label 0"}
{"compound": "BrCc1cccc(Oc2ccccc2)c1", "test system": "Androgen receptor (Homo sapiens) (UniProt P10275)", "class": "label 1"}
{"compound": "CC(=O)OC(C)OC(=O)C(C)c1ccc(-c2ccccc2)c(F)c1 (centres undefined)", "test system": "Androgen receptor (Homo sapiens) (UniProt P10275)", "class": "label 0"}
{"compound": "N#Cc1ccc(C(=O)O)cc1", "test system": "Androgen receptor (Homo sapiens) (UniProt P10275)", "class": "label 0"}
{"compound": "O=C(O)c1cc(Br)c(O)c(Br)c1", "test system": "Androgen receptor (Homo sapiens) (UniProt P10275)", "class": "label 0"}
{"compound": "CC1(CO)CN(c2ccccc2)NC1=O (centres undefined)", "test system": "Androgen receptor (Homo sapiens) (UniProt P10275)", "class": "label 0"}
{"compound": "CCCCCCCCCC(C)=O", "test system": "Androgen receptor (Homo sapiens) (UniProt P10275)", "class": "label 0"}

---

assay protocol: qHTS RealTime-Glo MT Cell Viability Assay in HEK293 cells - 40 hour (AID 1224874); note: % is set by controls: 0 for no effect and ±100 for the full control effect; nearly all actives have a fitted effect of over 50% in size
condition summary: RealTime-Glo luminescence; stronger effect = lower value
Records with an inconclusive call do not appear.

{"molecule": "O=C(CCN1CCN(CCO)CC1)N1c2ccccc2Sc2ccc(C(F)(F)F)cc21", "max response, %": -11.6}
{"molecule": "CN1C(C)(C)CCCC1(C)C", "max response, %": -1.11}
{"molecule": "OC[C@H](Cc1cccc(O)c1)[C@H](CO)Cc1cccc(O)c1", "max response, %": -10.5}
{"molecule": "Cc1cccc2nccnc12", "max response, %": 6.74}
{"molecule": "COc1ccc(Br)c(C)c1", "max response, %": 4.1}
{"molecule": "CCOC(=O)c1ccc(OC(=O)CCCCCN=C(N)N)cc1", "max response, %": -15.8}
{"molecule": "COc1nccnc1NS(=O)(=O)c1ccc(N)cc1", "max response, %": 2.98}
{"molecule": "Brc1ccc(-c2ccccc2)cc1", "max response, %": 1.08}
{"molecule": "CC(=O)NCc1c(I)c(NC(C)=O)c(I)c(C(=O)O)c1I", "max response, %": 3.65}
{"molecule": "On1nnc2ccccc21", "max response, %": -15.2}
{"molecule": "CCC(C=O)CC", "max response, %": -5.72}
{"molecule": "CCO[Si](CCCS)(OCC)OCC", "max response, %": 16.1}
{"molecule": "Cc1ccccc1N=O", "max response, %": 9.08}
{"molecule": "O=C(/N=N/C(=O)OCc1ccccc1)OCc1ccccc1", "max response, %": -13.7}
{"molecule": "CC(C)C(=O)OCCc1ccccc1", "max response, %": -2.86}
{"molecule": "CC(=O)c1ccc2c(c1)Cc1ccccc1-2", "max response, %": -0.213}
{"molecule": "Nc1ccc(S(=O)(=O)Nc2ccc(Cl)nn2)cc1", "max response, %": -0.389}
{"molecule": "CCOC(=O)/C=C/c1ccccc1", "max response, %": -4.48}
{"molecule": "CN(C)CCOCCO", "max response, %": -8.11}
{"molecule": "CCCCCCN", "max response, %": 9.84}
{"molecule": "COc1cc2c(cc1OC)C(=O)CC2", "max response, %": -24.5}
{"molecule": "CC(=O)c1sc(C)nc1C", "max response, %": -23.3}
{"molecule": "CC(C(=O)O)c1ccc2c(c1)CC(=O)c1ccccc1S2 (stereo not given)", "max response, %": -2.02}
{"molecule": "O=C(O)c1cc(Cl)cc([N+](=O)[O-])c1Cl", "max response, %": 21}
{"molecule": "O=C1c2ccccc2C(=O)C1c1ccccc1", "max response, %": 3.3}
{"molecule": "CCC(CC)CO", "max response, %": 3.01}
{"molecule": "COc1ccc(C2CNC(=O)C2)cc1OC1CCCC1 (stereo not given)", "max response, %": -17.5}
{"molecule": "CN=C(NC#N)Nc1ccc(C2=NNC(=O)CC2C)cc1 (stereo not given)", "max response, %": 11.7}
{"molecule": "O=S(=O)(O)CCN1CCN(CCO)CC1", "max response, %": -3.48}
{"molecule": "COC(=O)[C@@H]1[C@H]2C[C@H]3c4[nH]c5ccccc5c4CCN3C[C@@H]2CC[C@@H]1O", "max response, %": -22.3}

Taken from PubChem BioAssay (Tox21).
